Molecular target: T1, recombinant human GPC1 protein (R&D Systems) (human, UniProt P35052 24-530)
T1 construct: Bought recombinant protein (R&D Systems); also called human GPC-1 antigen; Glypican-1
T1 sequence: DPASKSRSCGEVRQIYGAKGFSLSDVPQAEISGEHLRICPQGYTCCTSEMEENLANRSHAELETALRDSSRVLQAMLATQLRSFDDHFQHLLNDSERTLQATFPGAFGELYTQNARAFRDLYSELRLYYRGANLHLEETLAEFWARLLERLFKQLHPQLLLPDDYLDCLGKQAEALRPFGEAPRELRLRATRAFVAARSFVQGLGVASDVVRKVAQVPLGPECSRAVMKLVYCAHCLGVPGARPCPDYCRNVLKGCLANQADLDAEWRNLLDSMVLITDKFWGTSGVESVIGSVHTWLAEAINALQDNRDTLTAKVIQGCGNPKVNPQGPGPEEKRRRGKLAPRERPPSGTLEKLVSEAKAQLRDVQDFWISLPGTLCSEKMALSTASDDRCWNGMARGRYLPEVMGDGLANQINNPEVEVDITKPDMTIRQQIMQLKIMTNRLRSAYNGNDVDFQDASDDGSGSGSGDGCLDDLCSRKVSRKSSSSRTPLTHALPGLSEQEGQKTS
Assay: SPR (Biacore 8K); antibody captured by anti-human IgG (Fc) on a CM5 chip, recombinant human GPC1 flowed over
koff values by entry
Provide only the numeric value, understood in s⁻¹.

binder	metric-name	value-observed
humanized anti-GPC1 monoclonal antibody clone T29 (antibody, human IgG4 S228P, kappa, V domains shown, IgG) VH: QVQLVQSGAEVKKPGASVKVSCKASGYTFTGYYMHWVRQAPGQGLEWMGEINPSTGDTTYNQKFKARVTMTRDTSTSTVYMELSSLRSEDTAVYYCAREKRDDGVFAYWGQGTLVTVSS VL: DIVMTQSPSSLSASVGDRVTITCRASQDISSYLNWYQQKPGEAPKLLVYGASNLQRGVPPGFRGSGSGTDFTLTINNLQPEDFATYYCQQSSTSPITFGQGTRLEIKR	koff	0.0664
humanized anti-GPC1 monoclonal antibody clone T7 (antibody, human IgG4 S228P, kappa, V domains shown, IgG) VH: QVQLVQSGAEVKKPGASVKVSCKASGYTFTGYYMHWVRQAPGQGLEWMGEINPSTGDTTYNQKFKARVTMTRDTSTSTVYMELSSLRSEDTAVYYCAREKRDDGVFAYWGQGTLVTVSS VL: AIQLTQSPSTLSASVGDRVTITCRASQSISSWLAWYQQKPGKAPKLLISDASNLASGVPLRFSGSGFGTHFTLTIDNLQPEDIATYSCQQYNNYPFTFGLGTKLEIKR	koff	0.00411

Below: the item to evaluate.
Data request: I would be grateful if you could share the reported koff for human/mouse chimeric anti-GPC1 antibody (clone 01a033) (antibody, human IgG4 S228P, kappa, V domains shown, also called chimeric mouse antibody (01a033); anti-GPC-1 chimeric antibody (01a033)) VH: QVQLKQSGPELVKPGASVKISCKASGYSFTGYYMHWVKQSPEKSLEWIGEINPSTGDTTYNQKFKAKATLTVDKSSSTAYMQLKSLTSEDSAVYYCAREKRDDGVFAYWGQGTLVTVSS VL: DIVMSQSPKSMSMSVGERVALSCKASENVGTYVSWYQQKPEQSPKLLIYGASNRYTGVPDRFTGSGSATDFTLTISSVQAEDLADYYCGQSYSYPLTFGAGTKLELKR .
Data returned: 0.00309

Ref: patent US20230250188A1
